Entry source: the NIST ThermoML archive (doi:10.1016/j.tca.2012.11.004)

# test context: 298.15 K; 101.33 kPa; Liquid; Vibrating tube method
Assignment: determine reported mass density for the given molecules.
Numeric answer only, unit kg/m3 assumed.

Ask: Which value of mass density has been reported for CC(=O)N(C)C [N,N-dimethylethanamide] in the records?
Result: 936.38

Ask: And the next one, NC=O [formamide] ?
Result: 1129.16

Ask: Would you mind doing CN(C)C=O [dimethylformamide] as well?
Result: 943.9

Ask: Next entry: CNC=O [N-methylformamide]
Result: 998.94
